Biological target: human wild type FGFR3 (Homo sapiens (Human), UniProt P22607)
Sequence (P22607 23-806): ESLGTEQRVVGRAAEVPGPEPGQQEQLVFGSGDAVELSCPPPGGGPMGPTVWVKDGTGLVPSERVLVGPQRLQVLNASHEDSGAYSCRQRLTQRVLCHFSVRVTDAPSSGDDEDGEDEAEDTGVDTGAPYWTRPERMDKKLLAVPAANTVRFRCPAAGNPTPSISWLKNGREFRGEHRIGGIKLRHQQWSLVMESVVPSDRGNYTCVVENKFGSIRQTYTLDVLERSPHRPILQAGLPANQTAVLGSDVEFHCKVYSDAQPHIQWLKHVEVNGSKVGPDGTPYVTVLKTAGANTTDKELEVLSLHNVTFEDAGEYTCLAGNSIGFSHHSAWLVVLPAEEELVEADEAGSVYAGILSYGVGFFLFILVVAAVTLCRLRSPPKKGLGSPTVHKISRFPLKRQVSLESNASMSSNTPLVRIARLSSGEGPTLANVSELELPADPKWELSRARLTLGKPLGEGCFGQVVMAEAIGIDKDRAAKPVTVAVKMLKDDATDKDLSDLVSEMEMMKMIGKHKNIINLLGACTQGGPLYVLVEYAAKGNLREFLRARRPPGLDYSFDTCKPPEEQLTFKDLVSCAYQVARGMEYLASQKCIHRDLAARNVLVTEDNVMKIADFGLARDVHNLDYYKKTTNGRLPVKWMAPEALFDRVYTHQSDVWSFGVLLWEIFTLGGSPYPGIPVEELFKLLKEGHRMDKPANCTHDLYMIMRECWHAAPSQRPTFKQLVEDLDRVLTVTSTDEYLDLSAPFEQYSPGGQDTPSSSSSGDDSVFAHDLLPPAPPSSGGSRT
Assay: FGFR3 pFGFR Cell Assay
Assay type: cell-based
Conditions: HEK-293 cells, 1 hour compound, 100 ng/ml human FGF-acidic, ELISA
Readout Name: IC50 (nM)

{"Compound": "C=CC(=O)N1CC[C@@H](C(=O)N2CCC(n3cc(-c4cnc5ccc(Nc6cc(OC)cc(OC)c6)cc5n4)cn3)CC2)C1 [Example 2]", "Meas Value": 121}

(P) C=CC(=O)N1CCC(C(=O)N2CCC(n3cc(-c4cnc5ccc(Nc6cc(OC)cc(OC)c6)cc5n4)cn3)CC2)CC1 [Example 3]
(Q) C=CC(=O)N1CC(C(=O)N2CCC(n3cc(-c4cnc5ccc(Nc6cc(OC)cc(OC)c6)cc5n4)cn3)CC2)C1 [Example 1]
(R) C=CC(=O)N1CC(F)(C(=O)N2CCC(n3cc(-c4cnc5ccc(Nc6cc(OC)cc(OC)c6)cc5n4)cn3)CC2)C1 [Example 4]
Rank items: key IC50, increasing. # format: label list in the order the request specifies
R, Q, P
(R: 17 nM, Q: 35 nM, P: 89 nM)

----------
pIC50: −log10 of the molar value.
Measured pIC50 (phosphorylated FGFR3 (Homo sapiens (Human), UniProt P22607))
Readout Name: pIC50

{"Chemical Structure": "C=CC(=O)N1CC[C@@H](C(=O)N2CCC(n3cc(-c4cnc5ccc(Nc6cc(OC)cc(OC)c6)cc5n4)cn3)CC2)C1", "pIC50": 8.40}

(A) C=CC(=O)N1CC(C(=O)N2CC[C@@H](n3cc(-c4cnc5ccc(Nc6cc(OC)cc(OC)c6)cc5n4)cn3)C2)C1
(B) C=CC(=O)N1CC(C(=O)N2CCC(n3cc(-c4cnc5ccc(Nc6cc(OC)cc(OC)c6)cc5n4)cn3)CC2)C1
Look at A and B . Which one has the lower recorded pIC50 number? Record your answer as the label of the chosen record.
A

----------
Target: FGFR1 (Homo sapiens (Human))
Assay: LC/MS FGFR1 kobs assay (covalent modification)
Assay type: biochemical
Details: 500 nM FGFR1, 3 μM compound
Description: The LC/MS FGFR1 and FGFR3 kobs assays were conducted as follows. […] The extent of protein modification by each compound was determined by LC/MS on an Agilent Technologies 6520 Q-TOF LC/MS. […] Data analysis included five steps. First, the signals for the “DMSO Controls” were analyzed to determine the percent of signal associated with unmodified FGFR1 or FGFR3 at each time point. Next, the percent of the signal associated with the covalent modification was determined. […]
Readout Name: FGFR1 Enz kobs (min⁻¹)

Past entries and their recorded results:
{"Chemical Structure": "C=CC(=O)N1CC(C(=O)N2CCC(n3cc(-c4cnc5ccc(Nc6cc(OC)cc(OC)c6)cc5n4)cn3)CC2)C1", "Uom": "min⁻¹", "FGFR1 Enz kobs": 0.00127}
{"Chemical Structure": "C=CC(=O)N1CC(C(=O)N2CC[C@@H](n3cc(-c4cnc5ccc(Nc6cc(OC)cc(OC)c6)cc5n4)cn3)C2)C1", "Uom": "min⁻¹", "FGFR1 Enz kobs": 0.00106}
{"Chemical Structure": "C=CC(=O)N1CC[C@@H](C(=O)N2CCC(n3cc(-c4cnc5ccc(Nc6cc(OC)cc(OC)c6)cc5n4)cn3)CC2)C1", "Uom": "min⁻¹", "FGFR1 Enz kobs": 0.00038}
{"Chemical Structure": "COc1cc(Nc2ccc3ncc(-c4cnn(C5CCN(C(=O)C6(C#N)CN(C(=O)/C=C/CN(C)C)C6)CC5)c4)nc3c2)cc(OC)c1", "Uom": "min⁻¹", "FGFR1 Enz kobs": 0.01822}
{"Chemical Structure": "C=CC(=O)N1CC(O)(C(=O)N2CCC(n3cc(-c4cnc5ccc(N(C)c6cc(OC)cc(OC)c6)cc5n4)cn3)CC2)C1", "Uom": "min⁻¹", "FGFR1 Enz kobs": 0.00264}

(I) C=CC(=O)N1CC(C(=O)N2CCN(c3ccc(-c4cnc5ccc(Nc6cc(OC)cc(OC)c6)cc5n4)cn3)CC2)C1
(II) COc1cc(Nc2ccc3ncc(-c4cnn(C5CCN(C(=O)C6(F)CN(C(=O)/C=C/CN(C)C)C6)CC5)c4)nc3c2)cc(OC)c1
(III) C=CC(=O)N1CC(O)(C(=O)N2CCC(n3cc(-c4cnc5ccc(Nc6cc(OC)cc(OC)c6)cc5n4)cn3)CC2)C1
(IV) C=CC(=O)N1CC(F)(C(=O)N2CCC(n3cc(-c4cnc5ccc(Nc6cc(OC)cc(OC)c6)cc5n4)cn3)CC2)C1
(V) C=CC(=O)N1CC(CN2CCC(n3cc(-c4cnc5ccc(Nc6cc(OC)cc(OC)c6)cc5n4)cn3)CC2)C1
Rank entries according to their FGFR1 Enz kobs, from the largest number down. # format: label list in the order the request specifies
II, IV, III, V, I
(II: 0.01569 min⁻¹, IV: 0.00632 min⁻¹, III: 0.00288 min⁻¹, V: 0.00172 min⁻¹, I: 0.0011 min⁻¹)

(P) COc1cc(Nc2ccc3ncc(-c4ccc(N5CCN(C(=O)C6CN(C(=O)/C=C/CN(C)C)C6)CC5)nc4)nc3c2)cc(OC)c1
(Q) C=CC(=O)N1CC(F)(C(=O)N2CCN(c3cc(C)c(-c4cnc5ccc(Nc6cc(OC)cc(OC)c6)cc5n4)cn3)CC2)C1
Look at P and Q . Which one has the lower recorded FGFR1 Enz kobs number? Record your answer as the label of the chosen record.
Q
(Q: 0.00154 min⁻¹, P: 0.00259 min⁻¹)

----------
Biological target: recombinant human FGFR2 cytoplasmic domain (Homo sapiens (Human))
Sequence (P21802 402-821): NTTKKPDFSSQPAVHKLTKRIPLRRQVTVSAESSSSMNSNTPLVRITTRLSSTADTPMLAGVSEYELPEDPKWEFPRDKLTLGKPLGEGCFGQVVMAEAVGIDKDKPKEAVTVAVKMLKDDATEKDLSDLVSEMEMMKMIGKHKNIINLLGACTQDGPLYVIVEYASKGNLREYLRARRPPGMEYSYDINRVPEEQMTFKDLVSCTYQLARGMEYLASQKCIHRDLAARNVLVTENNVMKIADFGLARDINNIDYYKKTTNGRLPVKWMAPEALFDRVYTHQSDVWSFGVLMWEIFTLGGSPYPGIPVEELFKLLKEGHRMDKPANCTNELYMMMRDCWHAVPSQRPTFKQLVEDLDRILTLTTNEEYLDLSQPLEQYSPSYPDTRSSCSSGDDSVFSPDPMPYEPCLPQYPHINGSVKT
Test: FGFR Enzyme Activity Assay (LanthaScreen TR-FRET), FGFR2
Conditions: 15 μM ATP, 20 minute incubation; read-out: FGFR2 Enz FRET IC50
Protocol: FGFR2 kinase activity was measured by the Invitrogen LanthaScreen™ Assay technology which directly measures the amount of substrate phosphorylation by TR-FRET using a flourescently-labeled peptide and Europium-labeled antibody. […] After an additional 60 minute incubation at 22° C., the reaction was measured using a PerkinElmer EnVision multimode plate reader via TR-FRET dual wavelength detection, and the percent of control (POC) calculated using a ratiometric emission factor. […]
Readout Name: IC50 (nM)

{"Molecule": "COc1cc(Nc2ccc3ncc(-c4cnn(C5CCN(C(=O)C6(F)CN(C(=O)/C=C/CN(C)C)C6)CC5)c4)nc3c2)cc(OC)c1 [Example 10]", "Uom": "nM", "IC50": 11}
{"Molecule": "C=CC(=O)N1CC(O)(C(=O)N2CCC(n3cc(-c4cnc5ccc(N(C)c6cc(OC)cc(OC)c6)cc5n4)cn3)CC2)C1 [Example 27]", "Uom": "nM", "IC50": 12}
{"Molecule": "C=CC(=O)N1CC(C(=O)N2CC[C@@H](n3cc(-c4cnc5ccc(Nc6cc(OC)cc(OC)c6)cc5n4)cn3)C2)C1 [Example 21]", "Uom": "nM", "IC50": 187}
{"Molecule": "C=CC(=O)N1CC(C(=O)N2CCN(c3cccc(-c4cnc5ccc(Nc6cc(OC)cc(OC)c6)cc5n4)c3)CC2)C1 [Example 25]", "Uom": "nM", "IC50": 1740}
{"Molecule": "COc1cc(Nc2ccc3ncc(-c4cnn(C5CCN(C(=O)C6(C#N)CN(C(=O)/C=C/CN(C)C)C6)CC5)c4)nc3c2)cc(OC)c1 [Example 11]", "Uom": "nM", "IC50": 15}

(A) C=CC(=O)N1CC(O)(C(=O)N2CCC(n3cc(-c4cnc5ccc(Nc6cc(OC)cc(OC)c6)cc5n4)cn3)CC2)C1 [Example 26]
(B) C=CC(=O)N1CC(C(=O)N2CCN(c3ccc(-c4cnc5ccc(Nc6cc(OC)cc(OC)c6)cc5n4)cn3)CC2)C1 [Example 5]
(C) C=CC(=O)N1CC(OC)(C(=O)N2CCC(n3cc(-c4cnc5ccc(Nc6cc(OC)cc(OC)c6)cc5n4)cn3)CC2)C1 [Example 24]
(D) C=CC(=O)N1CCC(C(=O)N2CCC(n3cc(-c4cnc5ccc(Nc6cc(OC)cc(OC)c6)cc5n4)cn3)CC2)CC1 [Example 3]
(E) COc1cc(Nc2ccc3ncc(-c4ccc(N5CCN(C(=O)C6(F)CN(C(=O)/C=C/CN(C)C)C6)CC5)nc4C)nc3c2)cc(OC)c1 [Example 13]
Rank items: key IC50, increasing. # format: label list in the order the request specifies
D, A, C, B, E

----------
Target: FGFR1 (Homo sapiens (Human), UniProt P11362)
Sequence (P11362 458-765): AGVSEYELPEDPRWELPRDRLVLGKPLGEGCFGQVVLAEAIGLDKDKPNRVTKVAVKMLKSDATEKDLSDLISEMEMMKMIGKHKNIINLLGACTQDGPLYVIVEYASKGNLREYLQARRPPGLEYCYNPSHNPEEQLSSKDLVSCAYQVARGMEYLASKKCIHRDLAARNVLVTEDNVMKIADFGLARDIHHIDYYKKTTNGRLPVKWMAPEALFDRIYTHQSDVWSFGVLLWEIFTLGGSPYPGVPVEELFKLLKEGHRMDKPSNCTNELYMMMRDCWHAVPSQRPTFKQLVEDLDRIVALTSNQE
Test: LC/MS FGFR1 kobs assay (covalent modification)
Assay type: biochemical
Conditions: 500 nM FGFR1, 3 μM compound
Readout Name: FGFR1 Enz kobs (min⁻¹)

Past entries and their recorded results:
{"Compound": "C=CC(=O)N1CC(F)(C(=O)N2CCN(c3ccc(-c4cnc5ccc(Nc6cc(OC)cc(OC)c6)cc5n4)cn3)CC2)C1 [Example 8]", "Tested On": "FGFR1 (Homo sapiens (Human), UniProt P11362)", "Meas Value": 0.00384}
{"Compound": "COc1cc(Nc2ccc3ncc(-c4cnn(C5CCN(C(=O)C6(F)CN(C(=O)/C=C/CN(C)C)C6)CC5)c4C)nc3c2)cc(OC)c1 [Example 17]", "Tested On": "FGFR1 (Homo sapiens (Human), UniProt P11362)", "Meas Value": 0.00842}

(I) COc1cc(Nc2ccc3ncc(-c4cnn(C5CCN(C(=O)C6CN(C(=O)/C=C/CN(C)C)C6)CC5)c4)nc3c2)cc(OC)c1 [Example 9]
(II) C=CC(=O)N1CC(C#N)(C(=O)N2CCC(n3cc(-c4cnc5ccc(Nc6cc(OC)cc(OC)c6)cc5n4)cn3)CC2)C1 [Example 12]
Look at I and II . Which one has the lower recorded FGFR1 Enz kobs number? Record your answer as the label of the chosen record.
I
(I: 0.00278 min⁻¹, II: 0.0107 min⁻¹)
